Biological target: H2 receptor (Homo sapiens)
Assay: IC50 antagonist activity screen (PathHunter β-Arrestin GPCR assay)
Assay type: cell-based
Details: maximum inhibition (antagonism) from IC50 curves; about 60% or higher = strong activity
Procedure: It has additionally been discovered that the alkyl side chain length of cannabinoid compounds can influence the effect the cannabinoid compounds have on the GPCR receptors. […] A single assay was run. […] Microplates were read following signal generation with a PerkinElmer Envision™ (PerkinElmer Inc., Waltham, Mass.) for chemiluminescent signal detection. Reactivity was analyzed using the CBIS data analysis suite (ChemInnovation, CA) where RLU refers to the raw measured values. […]
readout: Maximum inhibition (%)
Keep it simple and answer with nothing but the number.

>>> df
                                        smi           target_under_test  value_observed
0  CCCCCCCCCc1cc(O)c(C/C=C(\C)CCC=C(C)C)c(O)c1C(=O)O  H2 receptor (Homo sapiens)              11
1  CCCCCCCc1cc(O)c(C/C=C(\C)CCC=C(C)C)c(O)c1  H2 receptor (Homo sapiens)              93
2  C=C(C)[C@@H]1CCC(C)=C[C@H]1c1c(O)cc(C)cc1O  H2 receptor (Homo sapiens)              53

The compound CCCCCCc1cc(O)c(C/C=C(\C)CCC=C(C)C)c(O)c1C(=O)O showed Maximum inhibition (%) equal to 9

----------
Target: H2 receptor (Homo sapiens)
Experiment: GPCR reactivity screen (PathHunter β-Arrestin GPCR assay), antagonist mode
Assay type: cell-based
Settings: single assay run; pre-incubation with cannabinoid, then agonist challenge at EC80; test concentration not given; about 60% or higher = strong activity
Listed here: items and their measured H2 Receptor Antagonist Activity (percent inhibition).
# unit: % | format: bare number

# example entries with known answers
In [3]: df
Out[3]:
                                   compound  unit_symbol  value_observed
0  CCCCCc1cc2c(c(O)c1C(=O)O)C=CC(C)(CCC=C(C)C)O2 (stereo not drawn)            %              12
1     CCCc1cc(O)c(C/C=C(\C)CCC=C(C)C)c(O)c1            %              10
2  CCCCCc1cc2c(c(O)c1C(=O)O)C1C3C(CCC3(C)O2)C1(C)C (stereo not drawn)            %              11
3  C=C(C)[C@@H]1CCC(C)=C[C@H]1c1c(O)cc(CCC)c(C(=O)O)c1O            %              12
4      CCCCc1cc(O)c(CC=C(C)CCC=C(C)C)c(O)c1            %             −62

The compound C=C(C)[C@@H]1CCC(C)=C[C@H]1c1c(O)cc(C)cc1O showed H2 Receptor Antagonist Activity (percent inhibition) equal to 47

The compound C=C(C)[C@@H]1CCC(C)=C[C@H]1c1c(O)cc(CCCCC)c(C(=O)O)c1O showed H2 Receptor Antagonist Activity (percent inhibition) equal to 4

The compound CCCCc1cc(O)c(C/C=C(\C)CCC=C(C)C)c(O)c1C(=O)O showed H2 Receptor Antagonist Activity (percent inhibition) equal to 16

The compound CCCc1cc(O)c2c(c1)OC(C)(C)[C@@H]1CCC(C)=C[C@@H]21 [THCV, tetrahydrocannabivarin] showed H2 Receptor Antagonist Activity (percent inhibition) equal to −22

The compound CCCCCc1cc(O)c(C/C=C(\C)CCC=C(C)C)c(O)c1C(=O)O showed H2 Receptor Antagonist Activity (percent inhibition) equal to −3

The compound CCCCCc1cc(O)c2c(c1)OC(C)(CCC=C(C)C)C=C2 (stereo not drawn) showed H2 Receptor Antagonist Activity (percent inhibition) equal to 117

The compound CCCc1cc(O)c(C/C=C(\C)CCC=C(C)C)c(O)c1C(=O)O showed H2 Receptor Antagonist Activity (percent inhibition) equal to 2

----------
Biological target: UniProt P25021
Assay: IC50 antagonist activity screen (PathHunter β-Arrestin GPCR assay)
Type: cell-based
Conditions: maximum inhibition (antagonism) from IC50 curves; about 60% or higher = strong activity
Description: It has additionally been discovered that the alkyl side chain length of cannabinoid compounds can influence the effect the cannabinoid compounds have on the GPCR receptors. […] A single assay was run. […] Microplates were read following signal generation with a PerkinElmer Envision™ (PerkinElmer Inc., Waltham, Mass.) for chemiluminescent signal detection. Reactivity was analyzed using the CBIS data analysis suite (ChemInnovation, CA) where RLU refers to the raw measured values. […]
Listed here: items and their measured Maximum inhibition (%).
Keep it simple and answer with nothing but the number.

# example entries with known answers
In [3]: df
Out[3]:
                                   compound  value_observed
0  CCCCCCc1cc(O)c(C/C=C(\C)CCC=C(C)C)c(O)c1 [CBG-C6, cannabigerol hexyl]              84
1  C=C(C)[C@@H]1CCC(C)=C[C@H]1c1c(O)cc(CCCCC)cc1O [CBD, cannabidol]              64
2  C=C(C)[C@@H]1CCC(C)=C[C@H]1c1c(O)cc(CCCCCCC)cc1O [CBD-C7, cannabidol heptyl]              74
3  C=C(C)[C@@H]1CCC(C)=C[C@H]1c1c(O)cc(CC)cc1O [CBD-C2, cannabidol-C2]              71
4  C=C(C)[C@@H]1CCC(C)=C[C@H]1c1c(O)cc(CCCCCC)cc1O [CBD-C6, cannabidol hexyl]              80
5  CCCCCCCCCc1cc(O)c(C/C=C(\C)CCC=C(C)C)c(O)c1 [CBG-C9, cannabigerol nonyl]              96
6  C=C(C)[C@@H]1CCC(C)=C[C@H]1c1c(O)cc(CCCCCCCCC)cc1O [CBD-C9, cannabidol nonyl]              56

Continue with the compound presented below.
The compound CCCCCCCc1cc(O)c(C/C=C(\C)CCC=C(C)C)c(O)c1C(=O)O [CBGA-C7, cannabigerolic acid heptyl] showed Maximum inhibition (%) equal to 17

----------
Biological target: H2 receptor (Homo sapiens)
Assay: IC50 antagonist activity screen (PathHunter β-Arrestin GPCR assay)
Format: cell-based
Settings: value at which the cannabinoid reached the reference compound's (tiotidine) 50% effective concentration; H2 receptor antagonist mode; read-out: RC50 (the source's name)
pIC50: −log10 of the molar value.
Record rule met whenever pIC50 is at 6 or higher; record rule not met when lower.

Here's what some known entries look like.
>>> df
                                        smi           target_under_test   class_label
0  C=C(C)[C@@H]1CCC(C)=C[C@H]1c1c(O)cc(CCC)cc1O  H2 receptor (Homo sapiens)  rule not met
1   CCCCCc1cc(O)c(C/C=C(\C)CCC=C(C)C)c(O)c1  H2 receptor (Homo sapiens)  rule not met
2  C=C(C)[C@@H]1CCC(C)=C[C@H]1c1c(O)cc(CC)cc1O  H2 receptor (Homo sapiens)  rule not met
3  CCCCCCc1cc(O)c(C/C=C(\C)CCC=C(C)C)c(O)c1  H2 receptor (Homo sapiens)  rule not met
4  CCCCCCCc1cc(O)c(C/C=C(\C)CCC=C(C)C)c(O)c1C(=O)O  H2 receptor (Homo sapiens)  rule not met
5  C=C(C)[C@@H]1CCC(C)=C[C@H]1c1c(O)cc(CCCCCC)cc1O  H2 receptor (Homo sapiens)      rule met
6  C=C(C)[C@@H]1CCC(C)=C[C@H]1c1c(O)cc(CCCCCCCCC)cc1O  H2 receptor (Homo sapiens)      rule met

In: Could you verify whether the entry CCCCCCCCCc1cc(O)c(C/C=C(\C)CCC=C(C)C)c(O)c1 shows pIC50 of no less than 6?
Out: rule not met

----------
Listed here: items and their measured Emax.
Target: H2 receptor (Homo sapiens, UniProt P25021)
Sequence (P25021 whole entry): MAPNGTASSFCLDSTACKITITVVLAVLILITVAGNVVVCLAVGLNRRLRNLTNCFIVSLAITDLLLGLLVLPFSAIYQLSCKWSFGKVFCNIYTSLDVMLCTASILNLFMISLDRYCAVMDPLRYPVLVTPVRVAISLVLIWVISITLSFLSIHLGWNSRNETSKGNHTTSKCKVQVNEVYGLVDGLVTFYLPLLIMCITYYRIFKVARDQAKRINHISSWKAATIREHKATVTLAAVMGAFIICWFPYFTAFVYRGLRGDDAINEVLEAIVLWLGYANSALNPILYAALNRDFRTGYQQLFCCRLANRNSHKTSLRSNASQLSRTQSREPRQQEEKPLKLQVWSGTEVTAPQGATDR
Assay: IC50 antagonist activity screen (PathHunter β-Arrestin GPCR assay)
Type: cell-based
Conditions: maximum inhibition (antagonism) from IC50 curves; about 60% or higher = strong activity; read-out: IC50 (Inhibition - Max Response)
# unit: % | format: bare number

# example entries with known answers
>>> df
                                   compound  readout  unit_symbol  value_observed
0  CCCCCc1cc(O)c2c(c1)OC1(C)CCC3C1C2C3(C)C (centres unmarked)     Emax            %              64
1  CCCCCc1cc(O)c2c(c1)OC(C)(CCC=C(C)C)C=C2 (centres unmarked)     Emax            %              62
2  C=C(C)[C@@H]1CCC(C)=C[C@H]1c1c(O)cc(CCC)cc1O     Emax            %              75
3   CCCCCc1cc(O)c(C/C=C(\C)CCC=C(C)C)c(O)c1     Emax            %              21

The compound CCCCCc1cc(O)c2c(c1)OC(C)(C)c1ccc(C)cc1-2 showed Emax equal to 12
